# test-details: NCI Yeast Anticancer Drug Screen. Data for the mlh1 strain (AID 171)
# experimental-context: S. cerevisiae mlh1 strain growth inhibition; at 100.0 µM
About 79,000 compounds went through this panel and 15% of them were active in at least one assay; those are over-represented in the sample as a whole. Activity calls are given as the source filed them. Cut-off read from the data, not from the text of the source: active = growth inhibition above about 70%; inactive = the rest.
Response enum: True for active, False for inactive

Returns: the outcome recorded for OC1CCCc2c1cc1ccc3cccc4ccc2c1c34 (stereo unspecified) in this assay.
True

Called result for CC[n+]1ccc2c(C)c3[nH]c4ccc(O)cc4c3c(C)c2c1
False

What is the recorded call for this compound in the test? C[C@@H]1C[C@H]2[C@@H]3CCC4=CC(=O)C=C[C@]4(C)[C@@]3(Cl)[C@@H](Cl)C[C@]2(C)[C@@]1(O)C(=O)COP(=O)(O)O
False

GET /call?item= COc1ccc(Br)c(C(=O)Sc2nnnn2-c2cccc(Cl)c2)c1 returns the recorded outcome of this test.
True

// outcome(item) with item = Cn1ccnc1Oc1ccc(Cl)cc1
True

For CC(=O)OCC(=O)C1(O)CCC2C3CCC4CCCCC4(C)C3CCC21C (stereo unspecified) , what call appears in the results of this test?
True

What did this assay record as the result for O=C1Nc2ccccc2/C1=C/COc1ccccc1 ?
True

Lab log entry: COc1cc(C(=O)/C=C/c2ccccc2O)ccc1O — outcome as called in the assay?
True

Outcome logged for CC/C(=C(\c1ccccc1)c1ccc(OCCN(C)C)cc1)c1ccccc1 in this assay:
True

Just curious, what result did NC(N)=N/N=C\c1c2ccccc2cc2ccccc12 get here?
True

// outcome(item) with item = COC(=O)c1cc(-c2ccc(C)cc2)[nH]c(=O)c1C#N
False

----------
# test-details: NCI Yeast Anticancer Drug Screen. Data for the rad52 strain (AID 147)
# experimental-context: S. cerevisiae rad52 mutant growth inhibition; at 11.0 µM
# Experimental: Growth inhibition of yeast strains with defined genetic alterations is measured as a screen for potential anti-cancer activity. Selected strains with alterations in DNA damage repair or cell cycle control were exposed to compounds and growth inhibition was measured relative to vehicle treated controls. The strain used in this assay is rad52
About 79,000 compounds went through this panel and 15% of them were active in at least one assay; those are over-represented in the sample as a whole. Calls of active or inactive are those of the source. Rule as the data show it: active = growth inhibition above about 70%; inactive = the rest.
One label from this list, please: active, inactive

Short answer needed: outcome of this test for O=C(c1cc(Br)ccc1O)c1cc(Br)ccc1O ?
active

Hello, I am checking results. What call was entered for COc1ccccc1N=NC(C(=O)c1ccccc1)C(=O)c1ccccc1 ?
inactive

// return assay outcome for c1ccc2c(c1)Oc1cccc3cccc-2c13
inactive

Record lookup: outcome of this test for O=C([O][Sn]([O]C(=O)c1ccccc1)([c]1ccccc1)[c]1ccccc1)c1ccccc1 ?
inactive

So what was the verdict on O=C(c1ccc(Cl)cc1)C1OC12C(=O)Nc1ccccc12 (stereo unspecified) in this test?
active

Dear colleague, could you share the recorded outcome for CC(=O)ON1C(=O)c2cccc3cccc(c23)C1=O when you have a moment?
active

----------
# test-details: NCI Yeast Anticancer Drug Screen. Data for the rad50 strain (AID 155)
# experimental-context: S. cerevisiae rad50 strain growth inhibition; at 50.0 µM (retest, dose inferred, filed as 5.0)
This is part of a sample that, as a whole, favours compounds with a hit. Of some 79,000 tested, about 15% had one in any assay. Activity calls are given as the source filed them. Rule as the data show it: active = growth inhibition above about 70%; inactive = the rest.
Answer with one of the outcomes given here: active, inactive

What call does the record list for O=[N+]([O-])c1cccc([N+](=O)[O-])c1S(=O)(=O)c1ccccc1 ?
active

Could you kindly confirm the outcome this assay logged for O=C1c2cc([N+](=O)[O-])ccc2-c2cccc(F)c21 ?
inactive

Name the outcome recorded for N#CSc1ccc(S(N)(=O)=O)cc1 in the assay.
active

Give the logged outcome of this assay for the following molecule: CC(Br)C(=O)c1ccc2cc(Br)c3ccccc3c2c1 (stereo unspecified)
inactive

Recorded test outcome, item O=C(COC(=O)c1cc(O)c(O)c(O)c1)c1ccc(-c2ccccc2)cc1
active

Test call for this molecule, please: Clc1ccccc1C1OC1c1ccccc1Cl (stereo unspecified)
active
